# Tested on: OVCAR-4
# ASSAY_PROTOCOL: NCI tumour cell line growth inhibition, 48 h
Active and inactive are the calls of the source. Rule as the data show it: active = GI50 up to about 1.1 µM and inactive = higher.
Outcomes you can answer with include only these: 1 for active, -1 for inactive

Recorded results for 3 compounds are shown here.
COMPOUND	TESTED_TARGET	ASSIGNED_CLASS
NC(=O)c1csc(CCCCCCc2nc(C(N)=O)cs2)n1	OVCAR-4	-1
Nc1ncnc2c1ncn2C1OC(CO)CC1O (stereo not drawn)	OVCAR-4	-1
CCOC(=O)c1sc2nc(SC)nc3c2c1NC(=O)CN3c1ccc(F)cc1	OVCAR-4	-1

Asked: Could you kindly confirm the outcome this assay logged for "N#CCCN(CCNc1ccccc1)C(=O)Nc1ccc(NC(=O)N(CCC#N)CCNc2ccccc2)cc1" ?
Given back: -1

Asked: Now consider "Clc1ccc(-c2nn3c(-c4ccncc4)nnc3s2)cc1" and answer again.
Given back: -1

Asked: Now consider "CN(C)C(=C1C(Br)=C(Br)C(Br)=C1Br)N(C)C" and answer again.
Given back: -1

Asked: Now consider "O=C1Nc2ccccc2/C1=N/NC(=S)N1CCCC1" and answer again.
Given back: 1

Asked: Now consider C/C(=C\c1ccccc1)C(O)C(=O)c1nc2ccc(Cl)cc2nc1O (stereo not drawn) and answer again.
Given back: -1

* * *

# Test system: NCI-H226
# ASSAY_PROTOCOL: NCI tumour cell line growth inhibition, 48 h
Activity calls are given as the source filed them. No stated cut-off is given here; in the data, active = GI50 up to about 1.1 µM and inactive = higher.
RECORDED_ENDPOINT: GI50

A selection of reference data follows.
MOLECULE	GI50
O=C1c2ccccc2C(=O)c2c(NCCCN3CCOCC3)ccc(NCCCN3CCOCC3)c21	6.59 µM (inactive)
CCCCCCCCCCCc1noc2c1C(=O)C(O)CC2 (stereo unspecified)	16.1 µM (inactive)
O=C1CCCn2c(nc3ccccc32)N1	> 100 µM (inactive)

Asked: Look up GI50 for this molecule: O=C(c1ccco1)C1CC(c2ccc3ccccc3c2O)=NN1 (stereo unspecified)
Given back: > 100 µM (inactive)

Asked: Now consider C=C1C(=O)OC2/C=C(/C)C3(O)OC(C)(CC(OC(=O)C(C)C)C12)CC3OC(C)=O (stereo unspecified) and answer again.
Given back: 35.5 µM (inactive)

Asked: Now consider CC(C)(C)C1CCC2(CC1)c1[nH]c3ccccc3c1C1(CCC(C(C)(C)C)CC1)c1[nH]c3ccccc3c12 (stereo unspecified) and answer again.
Given back: > 100 µM (inactive)

* * *

Documented GI50 across a set of compounds
# System: CAKI-1
# ASSAY_PROTOCOL: NCI tumour cell line growth inhibition, 48 h
The source made the active and inactive calls. No stated cut-off is given here; in the data, active = GI50 up to about 1.1 µM and inactive = higher.

A selection of reference data follows.
COMPOUND	RESULT
Nc1ccc2nc3n(c2c1)C(c1c(F)cccc1F)SC3 (stereo not drawn)	> 100 µM (inactive)
CC(C)CNC(=O)Cn1c2c(c3ccccc31)CCCC2	79.3 µM (inactive)
CN(C)/C(=N\C#N)N(Cc1ccccc1)Cc1ccccc1	> 100 µM (inactive)

Asked: Look up GI50 for this compound: O=C(Nc1ccccc1)N(C1=NCC(CI)S1)c1ccc(F)cc1F (stereo not drawn)
Given back: 25.4 µM (inactive)

Asked: Now consider "O=c1c2cc(Br)ccc2nc(CNc2ccccc2)n1-c1ccccc1" and answer again.
Given back: 3.02 µM (inactive)

* * *

Documented GI50 across a set of compounds
# Tested on: SK-MEL-2
# ASSAY_PROTOCOL: NCI tumour cell line growth inhibition, 48 h
Active and inactive are the calls of the source. Cut-off read from the data, not from the text of the source: active = GI50 up to about 1.1 µM and inactive = higher.

Asked: Look up GI50 for this compound: "CS(=O)(=O)NNS(=O)(=O)c1cccc([N+](=O)[O-])c1"
Given back: > 100 µM (inactive)

Asked: Now consider "O=C1Nc2ccc(Br)cc2/C1=N/Nc1ccc([N+](=O)[O-])cc1[N+](=O)[O-]" and answer again.
Given back: 2.13 µM (inactive)

Asked: Now consider "O=C1Oc2ccccc2C(=O)/C1=C1/C=C(c2ccccc2)SS1" and answer again.
Given back: > 100 µM (inactive)

Asked: Now consider "N#Cc1c(N)nc(Sc2ccccc2N)c(C#N)c1-c1ccccc1" and answer again.
Given back: 10.9 µM (inactive)

Asked: Now consider "COc1cc2c[n+](C)c3c4cc(OC)c(OC)cc4ccc3c2cc1OC" and answer again.
Given back: > 100 µM (inactive)

Asked: Now consider "COc1ccc(S(=O)(=O)N/N=C/c2cc(I)cc([N+](=O)[O-])c2O)cc1OC" and answer again.
Given back: 22.5 µM (inactive)

Asked: Now consider CCC1=NC(CO)[C@H](c2ccccc2)O1 (some centres undefined) and answer again.
Given back: > 100 µM (inactive)

Asked: Now consider "COc1cc(/C=C2\N=C(c3ccccc3)N(c3ccc(S(=O)(=O)Nc4nccs4)cc3)C2=O)ccc1O" and answer again.
Given back: > 100 µM (inactive)

Asked: Now consider "CCOC(=O)c1c(-c2ccc(Br)cc2)ccn1C" and answer again.
Given back: > 10 µM (inactive)

* * *

# System: PC-3
# ASSAY_PROTOCOL: NCI tumour cell line growth inhibition, 48 h
Calls of active or inactive are those of the source. Cut-off read from the data, not from the text of the source: active = GI50 up to about 1.1 µM and inactive = higher.
Documented GI50 across a set of compounds

A selection of reference data follows.
COMPOUND	GI50
COC(=O)[C@@H](NC1(c2ccccc2)c2ccccc2-c2ccccc21)[C@H](OC(=O)[C@H]1CCCN1S(=O)(=O)c1ccccc1)C(=O)OC	> 100 µM (inactive)
O=C(O)c1cc2cc(OCc3ccccc3)ccc2[nH]1	> 100 µM (inactive)
CN(C)C(=O)OC1=CC2CCC(C1)N2C (stereo not given)	97.5 µM (inactive)
Cc1cc2nc3c(N)nn(CCN(C)C)c3nc2cc1C	44.3 µM (inactive)
CN(C)Cc1cc(/N=N/c2ccccc2)ccc1O	75.7 µM (inactive)
CC1(COS(=O)(=O)OCC2(C)COS(=O)(=O)OC2)COS(=O)(=O)OC1	> 29.6 µM (inactive)

Asked: Look up GI50 for this compound: "OCCc1ccsc1-c1sc(-c2cc(CCO)c(-c3sc(-c4cc(CCO)c(-c5sccc5CCO)s4)cc3CCO)s2)cc1CCO"
Given back: 1.28 µM (inactive)

Asked: Now consider "CO/C(C)=N/CCC1=CCCCC1" and answer again.
Given back: > 100 µM (inactive)

Asked: Now consider CS(=O)(=O)c1ccc(C(=O)O[C@@H]2C(=O)N3CC[C@H]4OC(O)[C@@H]2[C@H]43)cc1 (stereo not given in full) and answer again.
Given back: > 100 µM (inactive)

Asked: Now consider "COc1ccc2c(c1)/C(=C\c1c(Cl)[nH]c3ccccc13)C(=O)N2" and answer again.
Given back: 4.9 µM (inactive)

* * *

# System: RPMI-8226
# ASSAY_PROTOCOL: NCI tumour cell line growth inhibition, 48 h
The source made the active and inactive calls. No stated cut-off is given here; in the data, active = GI50 up to about 1.1 µM and inactive = higher.
Outcomes you can answer with include only these: active, inactive

COMPOUND	ASSIGNED_CLASS
CNC(C)Cc1ccc(O)cc1 (stereo not drawn)	inactive

Asked: Could you kindly confirm the outcome this assay logged for CC1CC(=O)C2CC(CO)=CCCC2C1(C)CC/C(=C/CO)CO (stereo not drawn) ?
Given back: inactive

Asked: Now consider CC1OC(O[C@@H]2C=C3CC[C@@H]4[C@H](CC[C@]5(C)[C@@H](c6ccc(=O)oc6)CC[C@]45O)[C@@]3(C)CC2)C(O)C(O)C1O (stereo partly drawn) and answer again.
Given back: active

Asked: Now consider O=CC(O)C(O)C(O)C(O)COP(=O)(O)Cc1ccccc1 (stereo not drawn) and answer again.
Given back: inactive

Asked: Now consider "NCCCN1CCN(CC(=O)O)CCN(CCCN)CCN(CC(=O)O)CC1" and answer again.
Given back: inactive

Asked: Now consider CC(C)C1OCC(CO)CO1 (stereo not drawn) and answer again.
Given back: inactive

Asked: Now consider "COc1cccc(-c2cc(O)c3cccnc3n2)c1" and answer again.
Given back: active

Asked: Now consider "O=C1C(=O)N(c2cc(Cl)ccc2Cl)C(=O)C(=O)C1c1nc2ccccc2o1" and answer again.
Given back: inactive

Asked: Now consider "CO/C=C(/C(=O)OC)c1ccccc1[C@H]1C[C@@H]1c1ccc(OC)cc1" and answer again.
Given back: inactive

Asked: Now consider C=C(CCCCCCCCC)CC(=O)SCCNC(=O)CCNC(=O)C(O)C(C)(C)COP(=O)(O)OP(=O)(O)OCC1OC(n2cnc3c(N)ncnc32)C(O)C1OP(=O)(O)O (stereo not drawn) and answer again.
Given back: inactive

Asked: Now consider "Cn1cc(-c2ccc3c4ccccc4n(C)c3c2)c2ccccc21" and answer again.
Given back: inactive

Asked: Now consider "Cn1c(=O)cc(NNc2ccc(Cl)c(Cl)c2)[nH]c1=O" and answer again.
Given back: inactive

Asked: Now consider "CCOC(=O)N1CCc2cc(OC)c(OC)cc2/C1=C\c1ccc(OC)c(OC)c1" and answer again.
Given back: inactive

* * *

Documented GI50 across a set of compounds
# Test system: OVCAR-8
# ASSAY_PROTOCOL: NCI tumour cell line growth inhibition, 48 h
The source made the active and inactive calls. Rule as the data show it: active = GI50 up to about 1.1 µM and inactive = higher.

COMPOUND	RECORDED_ENDPOINT	RESULT
CCOC(=O)c1cnc2oc(-c3ccc(OC)cc3)nn2c1=O	GI50	> 100 µM (inactive)
CC(=O)c1ccc2c(c1)c1c(C)c3c[n+](C)ccc3c(C)c1n2C	GI50	1.45 µM (inactive)
O=c1c2c(F)c(F)c(F)c(F)c2sc2nccn12	GI50	19.2 µM (inactive)
Clc1ccc(C2ON=C(c3ccccc3)N2C23CC4CC(CC(C4)C2)C3)cc1 (stereo unspecified)	GI50	> 10 µM (inactive)
COc1ccc(N2C(=O)C(C#N)=C(SC)C(C#N)C2=O)cc1 (stereo unspecified)	GI50	> 100 µM (inactive)

Asked: Look up GI50 for this compound: "OCCc1ccsc1-c1sc(-c2cc(CCO)c(-c3sc(-c4cc(CCO)c(-c5sccc5CCO)s4)cc3CCO)s2)cc1CCO"
Given back: 1.55 µM (inactive)
